The measurements presented in this section are drawn from PubChem BioAssay AID330.

test system: P388 leukemia ip, CD2F1 mice, survival T/C; assay: NCI In Vivo Anticancer Drug Screen. Data for tumor model P388 Leukemia (intraperitoneal) in CD2F1 (CDF1) mice; settings: endpoint: median survival time; dose: 200.0 mg/kg/injection; schedule: Q01DX005 (ip); vehicle: Klucel (hydroxypropylcellulose) (HPC); higher = longer survival
Toxic doses and inconclusive results are not listed.
observable: T/C

- CC1=C(N2CCOCC2)C(N2CCOCC2)C(C)C1=O (stereo unspecified): 100 % of control
- S=C(NCCl)NCc1ccccc1: 105 % of control
- NNC(=O)CS(=O)(=O)Nc1ncccn1: 100 % of control
- C(=NCCC[Si]12OCCN(CCO1)CCO2)c1ccc(C=NCCC[Si]23OCCN(CCO2)CCO3)cc1: 95 % of control
- COc1cc2oc3cc(OC)c(OC)c(CC=C(C)C)c3c(=O)c2c(O)c1CC=C(C)C: 105 % of control
- COC(=O)C1=C(O)C(C(=O)OC)C2C(C(=O)OC)=C(O)C(C(=O)OC)C12 (stereo unspecified): 92 % of control
- CC12c3ccccc3C(C)(c3ccccc31)C(C(=O)O)C2Br (stereo unspecified): 95 % of control
- CC1(C)OC2OC(C3COC(=S)O3)C(O)C2O1 (stereo unspecified): 103 % of control
- C=C1C[C@@]23CC[C@@H]4[C@](C)(CC[C@H](O)[C@]4(C)COC(=O)CCC(=O)O)[C@H]2CC[C@@H]1C3: 99 % of control
- CNC(=O)CCCCCNC(C)=O: 90 % of control
- Cc1cc2ccccc2nc1C#N: 109 % of control
